Biological target: Recombinant human PKC-theta (His-tagged 362-706) (Homo sapiens (Human), UniProt Q04759)
Sequence (Q04759 362-706): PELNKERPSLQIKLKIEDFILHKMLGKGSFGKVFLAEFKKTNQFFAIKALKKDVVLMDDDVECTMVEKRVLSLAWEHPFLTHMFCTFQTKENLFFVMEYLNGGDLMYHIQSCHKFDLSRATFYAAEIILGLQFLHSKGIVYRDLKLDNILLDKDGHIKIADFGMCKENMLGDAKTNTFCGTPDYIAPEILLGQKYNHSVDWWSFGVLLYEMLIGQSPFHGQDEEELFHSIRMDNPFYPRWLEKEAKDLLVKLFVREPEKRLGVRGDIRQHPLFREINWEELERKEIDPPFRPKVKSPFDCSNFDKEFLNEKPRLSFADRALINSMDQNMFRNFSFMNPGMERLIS
Assay: PKC-theta inhibition assay (HTRF KinEASE kit)
Type: biochemical
Details: ATP 6.5 μM, binned A to H, read-out: PKC-theta HTRF pIC50 (binned) (converted)
measure: IC50

Look over these answered cases.
CC1(C)C(=O)Nc2nccc(-c3nn([C@@H]4CCNC[C@@H]4F)c4ccccc34)c21 : 1 to 3.16 nM
CC[C@]1(C)C(=O)Nc2nccc(-c3nn([C@H]4CCNC[C@H]4F)c4ccc(F)cc34)c21 (single isomer, unassigned) : 3.16 to 10 nM
CC[C@@]1(C)C(=O)Nc2nccc(-c3nn([C@H]4CCNC4)c4ccccc34)c21 (single isomer, unassigned) : 3.16 to 10 nM
CCC1(O)C(=O)Nc2nccc(-c3nn(C4(CC#N)CCC4)c4ccccc34)c21 (stereo not shown) : ≤ 1 nM
CC1(C)C(=O)Nc2nccc(-c3nn([C@H]4CCNC4)c4ccc(F)cc34)c21 : 10 to 31.6 nM

Look up and report measured IC50 for this entry: CO[C@]1(C)C(=O)Nc2nccc(-c3nn(CC4(F)CCNCC4)c4ccccc34)c21 (single isomer, unassigned)
1 to 3.16 nM

Tell me measured IC50 for C[C@]1(O)C(=O)Nc2nccc(-c3nn(C4(CC#N)CCC4)c4cc(C(F)(F)F)ccc34)c21 (single isomer, unassigned) please.
1 to 3.16 nM

---

System: IL-2 secretion by human effector memory T cells (TEM)
Assay: Effector memory T cells IL-2 release assay
Assay type: cell-based
Settings: T-cell; human CD4+ TEM cells, CD3/CD28 bead stimulation, 24 h; binned A to G; read-out: PKC-theta IL2 pIC50 (binned) (converted)
measure: IC50

Consider the following illustrative entries.
CC1(O)C(=O)Nc2nccc(-c3cn(C4(CC#N)CCC4)c4ccccc34)c21 (stereo not shown) : 31.6 to 100 nM
CC1(O)C(=O)Nc2nccc(-c3ccn(C4CCNCC4)n3)c21 (stereo not shown) : 316 to 1000 nM
CC1(Cn2nc(-c3ccnc4c3C(C)(C)C(=O)N4)c3ccccc32)COCCN1 (stereo not shown) : 31.6 to 100 nM

Give IC50 for CC1C(=O)Nc2nccc(-c3ccn(C4CCNCC4)c3)c21 (stereo not shown)
100 to 316 nM

---

Biological target: Recombinant human PKC-delta (His-tagged 345-676) (Homo sapiens (Human), UniProt Q05655)
Sequence (Q05655 345-676): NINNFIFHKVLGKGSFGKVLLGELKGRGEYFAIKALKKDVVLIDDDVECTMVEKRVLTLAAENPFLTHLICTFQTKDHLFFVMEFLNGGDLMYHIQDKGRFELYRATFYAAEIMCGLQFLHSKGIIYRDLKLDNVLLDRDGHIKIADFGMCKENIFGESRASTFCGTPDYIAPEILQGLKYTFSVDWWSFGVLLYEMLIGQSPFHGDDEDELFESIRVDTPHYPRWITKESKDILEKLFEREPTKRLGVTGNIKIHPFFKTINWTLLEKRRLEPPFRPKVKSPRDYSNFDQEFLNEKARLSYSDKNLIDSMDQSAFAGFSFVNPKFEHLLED
Assay: PKC-delta inhibition assay (HTRF KinEASE kit), PKC-theta/PKC-delta selectivity
Type: biochemical
Conditions: ratio, PKC-theta over PKC-delta, HTRF assays
Where a name gives a salt, the structure may show the parent alone.
measure: PKC-theta/PKC-delta selectivity

For orientation, consider the following solved cases.
CC1(C)C(=O)Nc2nccc(-c3cn(C4CCNCC4)c4ccccc34)c21 [Example 7, Dihydrochloride] : 6
CC1(C)C(=O)Nc2nccc(-c3nn(CC4CCNCC4)c4ccccc34)c21 : 14
CC1(O)C(=O)Nc2nccc(-c3nn([C@H]4CCNC[C@@H]4F)c4ccccc34)c21 (stereo partly shown) : 11

P = CC[C@]1(O)C(=O)Nc2nccc(-c3nn([C@@H]4CCNC[C@@H]4F)c4ccccc34)c21 (single isomer, unassigned)
Q = CC1(Cn2nc(-c3ccnc4c3C(C)(C)C(=O)N4)c3ccccc32)COCCN1 (stereo not shown)
R = CNC1(C)C(=O)Nc2nccc(-c3nn(C4(CC#N)CCC4)c4ccccc34)c21 (stereo not shown)
Please give the order of these molecules when sorted by PKC-theta/PKC-delta selectivity, largest value leading. Please list the labels in the order you were asked to rank them.
Q, P, R

---

Molecular target: Recombinant human PKC-theta (His-tagged 362-706) (Homo sapiens (Human))
Experiment: PKC-theta inhibition assay (HTRF KinEASE kit)
Format: biochemical
Conditions: ATP 6.5 μM, binned A to H, read-out: PKC-theta HTRF pIC50 (binned) (converted)
measure: IC50

CC1(C)C(=O)Nc2nccc(-c3nn(C4CCNCC4)c4c(F)cccc34)c21 : 3.16 to 10 nM
CC1(O)C(=O)Nc2nccc(-c3nn(C4CCNCC4)c4ccccc34)c21 (centres unmarked) : 3.16 to 10 nM
CN[C@]1(C)C(=O)Nc2nccc(-c3nn(C4(CC#N)CCC4)c4ccccc34)c21 (single isomer, unassigned) : ≤ 1 nM
O=c1[nH]c2nccc(-c3cnn(C4CCNCC4)c3)c2[nH]1 : 316 to 1000 nM
CC1(C)C(=O)Nc2nccc(-c3nn([C@@H]4CCCNC4)c4ccccc34)c21 : 3.16 to 10 nM

Input CC[C@@]1(O)C(=O)Nc2nccc(-c3nn([C@H]4CCNC[C@H]4F)c4ccccc34)c21 (single isomer, unassigned) , output reported IC50.
≤ 1 nM

Read off the recorded IC50 for CC1C(=O)Nc2nccc(-c3ccn(C4CCNCC4)c3)c21 (centres unmarked)
31.6 to 100 nM

Specify IC50 for CC1(C)C(=O)Nc2nccc(-c3nn(CC4(F)CCCNC4)c4ccccc34)c21 (centres unmarked) and stop.
31.6 to 100 nM

---

Biological target: Recombinant human PKC-theta (His-tagged 362-706) (Homo sapiens (Human), UniProt Q04759)
Assay: PKC-theta inhibition assay (HTRF KinEASE kit)
Format: biochemical
Settings: ATP 6.5 μM, read-out: PKC-theta HTRF pIC50 (converted)
measure: IC50 (µM)

CC[C@@]1(C)C(=O)Nc2nccc(-c3nn([C@@H]4CCNC[C@@H]4F)c4cc(F)ccc34)c21 (single isomer, unassigned) : 0.00251

I = CC[C@@]1(C)C(=O)Nc2nccc(-c3nn([C@H]4CCNC[C@H]4F)c4ccc(F)cc34)c21 (single isomer, unassigned)
II = CC[C@@]1(C)C(=O)Nc2nccc(-c3nn([C@H]4CCNC4)c4ccccc34)c21 (single isomer, unassigned)
III = CC[C@]1(O)C(=O)Nc2nccc(-c3nn([C@H]4CCNC[C@H]4F)c4ccccc34)c21 (single isomer, unassigned)
IV = CC[C@]1(O)C(=O)Nc2nccc(-c3nn([C@@H]4CCNC[C@@H]4F)c4ccccc34)c21 (single isomer, unassigned)
V = C[C@@]1(O)C(=O)Nc2nccc(-c3nn(C4(CC#N)CNC4)c4ccccc34)c21 (single isomer, unassigned)
Order field: IC50 | Direction: descending (largest first) Reply format: the labels, ordered as requested.
I, IV, III, V, II

---

Target: Recombinant human PKC-delta (His-tagged 345-676) (Homo sapiens (Human), UniProt Q05655)
Experiment: PKC-delta inhibition assay (HTRF KinEASE kit), PKC-theta/PKC-delta selectivity
Type: biochemical
Conditions: ratio, PKC-theta over PKC-delta, HTRF assays
Where a name gives a salt, the structure may show the parent alone.
measure: PKC-theta/PKC-delta selectivity

In the examples that follow, each entry is paired with its recorded PKC-theta/PKC-delta selectivity.
O=c1[nH]c2nccc(-c3ccn(C4CCNCC4)c3)c2[nH]1 [Example 3, Dihydrochloride] : 1
CC1(O)C(=O)Nc2nccc(-c3nn([C@@H]4CC[C@@H](N)[C@H](F)C4)c4ccccc34)c21 (some centres unmarked) [Example 39] : 10
CC[C@]1(OC)C(=O)Nc2nccc(-c3nn(CC4(F)CCNCC4)c4ccccc34)c21 (single isomer, unassigned) [Example 89] : 32
C[C@]1(O)C(=O)Nc2nccc(-c3nn(C4CCNCC4)c4ccccc34)c21 (single isomer, unassigned) [Example 28] : 15
CN[C@@]1(C)C(=O)Nc2nccc(-c3nn(C4(CC#N)CCC4)c4ccccc34)c21 (single isomer, unassigned) [Example 94] : 23
CC1(C)C(=O)Nc2nccc(-c3nn([C@H]4CCNC4)c4cc(Cl)ccc34)c21 [Example 71] : 22

a = CC1(C)C(=O)Nc2nccc(-c3nn(C[C@]4(C)COCCN4)c4ccccc34)c21 [Example 109]
b = CC1(C)C(=O)Nc2nccc(-c3nn(C[C@H]4COCCN4)c4ccccc34)c21 [Example 86]
I'm curious, which of these has a smaller PKC-theta/PKC-delta selectivity number: a or b ? Please identify the chosen entry by its label.
a
(a: 11, b: 26)

---

Target: Recombinant human PKC-theta (His-tagged 362-706) (Homo sapiens (Human))
Assay: PKC-theta inhibition assay (HTRF KinEASE kit)
Assay type: biochemical
Settings: ATP 6.5 μM, read-out: PKC-theta HTRF pIC50 (converted)
measure: IC50 (nM)

CC[C@@]1(C)C(=O)Nc2nccc(-c3nn([C@H]4CCNC[C@H]4F)c4ccccc34)c21 (single isomer, unassigned) : 20
CC[C@]1(C)C(=O)Nc2nccc(-c3nn([C@@H]4CCNC[C@@H]4F)c4ccc(F)cc34)c21 (single isomer, unassigned) : 31.6
CO[C@]1(C)C(=O)Nc2nccc(-c3nn([C@@H]4CCNC[C@@H]4F)c4ccccc34)c21 (single isomer, unassigned) : 1
C[C@]1(O)C(=O)Nc2nccc(-c3nn(C4(CC#N)CCC4)c4cc(C(F)(F)F)ccc34)c21 (single isomer, unassigned) : 2.51
CO[C@]1(C)C(=O)Nc2nccc(-c3nn(CC4(F)CCNCC4)c4ccccc34)c21 (single isomer, unassigned) : 2
CC[C@@]1(O)C(=O)Nc2nccc(-c3nn([C@H]4CCNC[C@H]4F)c4ccccc34)c21 (single isomer, unassigned) : 0.794

I = CC[C@@]1(O)C(=O)Nc2nccc(-c3nn(C4(CC#N)CCC4)c4ccccc34)c21 (single isomer, unassigned)
II = CO[C@@]1(C)C(=O)Nc2nccc(-c3nn(CC4(F)CCNCC4)c4ccccc34)c21 (single isomer, unassigned)
Endpoint returns whichever of I and II has the numerically higher IC50. Choose, then provide that item's label.
II
(II: 1 nM, I: 0.251 nM)

a = CC[C@@]1(O)C(=O)Nc2nccc(-c3nn([C@@H]4CCNC[C@@H]4F)c4ccccc34)c21 (single isomer, unassigned)
b = CC[C@]1(O)C(=O)Nc2nccc(-c3nn(C4(CC#N)CCC4)c4ccccc34)c21 (single isomer, unassigned)
c = CN[C@]1(C)C(=O)Nc2nccc(-c3nn(C4(CC#N)CCC4)c4ccccc34)c21 (single isomer, unassigned)
Please rank these compounds by IC50 in descending order. // rank by listing labels in the order requested
b, a, c

Value source: patent US20240239794A1
